# TARGET_DESC: Serine/threonine-protein kinase 3 (Homo sapiens)
# Sequence (Q13188 whole entry): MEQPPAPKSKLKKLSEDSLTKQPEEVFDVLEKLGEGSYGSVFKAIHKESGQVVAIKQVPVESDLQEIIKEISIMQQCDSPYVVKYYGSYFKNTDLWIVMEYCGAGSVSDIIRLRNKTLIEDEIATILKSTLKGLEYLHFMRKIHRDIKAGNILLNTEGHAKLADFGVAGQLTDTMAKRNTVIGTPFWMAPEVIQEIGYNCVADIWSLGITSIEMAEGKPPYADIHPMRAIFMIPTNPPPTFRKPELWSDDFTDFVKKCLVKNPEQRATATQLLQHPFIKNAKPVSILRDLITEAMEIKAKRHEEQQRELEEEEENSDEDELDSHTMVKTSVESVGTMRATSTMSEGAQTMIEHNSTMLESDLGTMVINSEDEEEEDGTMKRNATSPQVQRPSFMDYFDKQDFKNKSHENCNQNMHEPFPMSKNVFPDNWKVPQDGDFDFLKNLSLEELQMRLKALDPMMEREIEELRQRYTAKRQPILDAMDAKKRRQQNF
QUANTITY_NAME: pIC50
Friendly reminder that pIC50 comes from taking -log10 of the concentration in mol/L.

Need pIC50 of NC(=O)C[C@H](N)C(=O)NCc1cc(C(=O)O)c(Nc2ccc(I)cc2F)c(F)c1F , thanks.
5.22
